biological target: Torsin-1A-interacting protein 2 (Homo sapiens) (UniProt Q8NFQ8); test: LULL1 binders on small-molecule microarray, primary screen, cell lysate, human LULL1 lysate, 635/667 nm fluorescence (AID 1092); details: hLULL1 lysate binding, 635 nm fluorescence, higher = more signal;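 note: probe is lysate of COS7 cells overexpressing human LULL1; score merges per-feature 667 nm fluorescence with signal-to-noise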
Sequence (Q8NFQ8 whole entry, looked up): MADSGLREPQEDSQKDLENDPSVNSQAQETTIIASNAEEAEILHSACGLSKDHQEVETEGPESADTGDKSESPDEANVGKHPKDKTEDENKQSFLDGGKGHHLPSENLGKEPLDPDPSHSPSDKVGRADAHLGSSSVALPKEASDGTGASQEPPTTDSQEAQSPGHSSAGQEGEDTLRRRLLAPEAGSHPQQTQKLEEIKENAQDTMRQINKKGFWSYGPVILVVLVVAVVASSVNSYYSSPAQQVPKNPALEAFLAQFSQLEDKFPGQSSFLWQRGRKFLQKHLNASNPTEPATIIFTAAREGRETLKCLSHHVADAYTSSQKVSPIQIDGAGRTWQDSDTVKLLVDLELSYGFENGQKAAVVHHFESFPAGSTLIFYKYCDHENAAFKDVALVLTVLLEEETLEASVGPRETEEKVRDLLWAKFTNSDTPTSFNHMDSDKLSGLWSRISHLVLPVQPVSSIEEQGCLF
# reported composite z-score; entries follow
When you answer, write just the number.

Worked cases, composite z-score given:
compound: C=C(CCCC)/C(=C/C[C@@H](OC(C)=O)c1ccc(CO)o1)c1cc(C(=O)OC)ccc1OC
composite z-score: 2.75
--
compound: C=CCOC(=O)[C@H]1[C@@H]2C(=O)O[C@@H](c3ccccc3)[C@@H](c3ccccc3)N2[C@@H](c2ccc(OCCOC(=O)[C@H]3C[C@H]4C(=O)N[C@@H](Cc5ccccc5)C(=O)N4[C@H]3c3cccc(OCCO)c3)cc2)[C@]12C(=O)Nc1ccc(I)cc12
composite z-score: 2.36

q: # lookup: composite z-score of C=CCNC(=O)[C@H]1[C@@H]2C(=O)O[C@@H](c3ccccc3)[C@@H](c3ccccc3)N2[C@@H](c2ccccc2OCCO)[C@]12C(=O)N(C(=O)OCCOC)c1ccc(C#CC3=CCCCC3)cc12
a: 2.38

q: GET /values?readout=composite z-score&item= COC(=O)[C@@]1(Cc2ccc(F)cc2)[C@H]2c3cc(C(=O)N4CCCC4)n(CCc4c[nH]c5ccc(OC)cc45)c3C[C@H]2CN1C(=O)c1ccccc1
a: 3.37

q: Request the reported composite z-score associated with CN1C2C=C(CCCO)C(C3C(=O)N(C(N)=O)C(=O)C32)C1c1cccs1 (stereo unspecified)
a: 0.502

q: Which composite z-score value is on record for CN1C(=O)C2C=CC(C(O)Cc3ccccc3)N(N(c3ccccc3)c3ccccc3)C2C1=O (stereo unspecified) ?
a: 2.22
